target: APOL1 (Homo sapiens, UniProt O14791); assay: MultiTox-Fluor Multiplex Cytotoxicity Assay in tet-inducible APOL1 T-REx-HEK293 cells; type: cell-based; conditions: 50 ng/mL tet, 24 hours, ratio of dead to live cells, read-out: IP50 (i.e., IC50 for cell proliferation)
Sequence (O14791 whole entry S342G/I384M, form open): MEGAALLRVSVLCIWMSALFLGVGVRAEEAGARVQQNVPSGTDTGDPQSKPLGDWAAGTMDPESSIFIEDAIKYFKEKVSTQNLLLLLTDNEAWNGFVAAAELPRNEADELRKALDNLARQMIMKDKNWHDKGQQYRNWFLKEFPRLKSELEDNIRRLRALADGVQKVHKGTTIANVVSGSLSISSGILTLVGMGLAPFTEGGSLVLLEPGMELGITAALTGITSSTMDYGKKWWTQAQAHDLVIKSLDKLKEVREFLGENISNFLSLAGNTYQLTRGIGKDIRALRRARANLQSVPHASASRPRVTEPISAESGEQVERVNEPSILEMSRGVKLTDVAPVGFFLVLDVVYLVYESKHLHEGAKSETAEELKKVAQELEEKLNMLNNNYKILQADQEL
pIC50: −log10 of the molar value.

molecule: Clc1cc2c(s1)C1(CCNC(C3CC3)C1)OCC2 (centres unmarked) [Compound 19]
pIC50: 6.00 to 6.30

molecule: Cc1cc([C@@H]2C[C@]3(CCN2)OCC(O)c2cc(Cl)sc23)on1 (some centres unmarked) [Compound 34]
pIC50: 6.30 to 7.00

molecule: Cn1cc(C2CC3(CCN2)OCCc2cc(C4CC(F)(F)C4)sc23)nn1 (centres unmarked) [Compound 46]
pIC50: 6.30 to 7.00

molecule: Cc1cc([C@@H]2C[C@]3(CCN2)OCCc2cc(Cl)sc23)no1 (single isomer, unassigned) [Compound 23]
pIC50: 6.30 to 7.00

molecule: CC(O)c1c(C(F)(F)F)sc2c1CCOC21CCN[C@H](c2cn(C)nn2)C1 (single isomer, unassigned) [Compound 53]
pIC50: > 7.00

* * *

target: APOL1 (Homo sapiens, UniProt O14791); assay: MultiTox-Fluor Multiplex Cytotoxicity Assay in tet-inducible APOL1 T-REx-HEK293 cells; details: 50 ng/mL tet, 24 hours, ratio of dead to live cells, read-out: IP50 (i.e., IC50 for cell proliferation)
Known IC50 of a selection of compounds

compound: Cn1cc([C@@H]2C[C@]3(CCN2)OCC(O)(C(F)F)c2cc(Cl)sc23)nn1 (single isomer, unassigned) [Compound 39]
IC50: 500 to 1000 nM
//
compound: Cc1cc2c(s1)C1(CCN[C@H](c3cn(C)nn3)C1)OCC2 (single isomer, unassigned) [Compound 32]
IC50: 100 to 500 nM
//
compound: Cn1cc([C@@H]2CC3(CCN2)OCCc2cc(CC(F)(F)F)sc23)nn1 (some centres unmarked) [Compound 48]
IC50: 100 to 500 nM
//
compound: OCCn1cc(C2CC3(CCN2)OCCc2cc(Cl)sc23)cn1 (centres unmarked) [Compound 14]
IC50: 500 to 1000 nM
//
compound: CCc1cc2c(s1)CCOC21CCNC(c2cn[nH]c2)C1 (centres unmarked) [Compound 13]
IC50: 500 to 1000 nM
//
compound: COc1ccccc1-n1cc([C@@H]2C[C@]3(CCN2)OCCc2cc(Cl)sc23)nn1 [Compound 66]
IC50: 100 to 500 nM
//
compound: CCc1cc2c(s1)CCOC21CCNC(c2ccc(F)cc2)C1 (single isomer, unassigned) [Compound 78]
IC50: 500 to 1000 nM
//
compound: Cc1ncc(C2CC3(CCN2)OCCc2cc(Cl)sc23)cn1 (centres unmarked) [Compound 1]
IC50: 100 to 500 nM

* * *

Each entry below carries its reported pIC50.
biological target: APOL1 (Homo sapiens); assay: MultiTox-Fluor Multiplex Cytotoxicity Assay in tet-inducible APOL1 T-REx-HEK293 cells; details: 50 ng/mL tet, 24 hours, ratio of dead to live cells, read-out: IP50 (i.e., IC50 for cell proliferation)
pIC50: −log10 of the molar value.

compound: Cn1cc(C2CC3(CCN2)OCCc2sc(Cl)cc23)nn1 (stereo not drawn)
pIC50: 6.00 to 6.30
--
compound: Cn1cc(C2CC3(CCN2)OCCc2cc(CC(F)F)sc23)nn1 (stereo not drawn)
pIC50: > 7.00
--
compound: COC1CO[C@]2(CCN[C@H](c3cn(C)nn3)C2)c2sc(Cl)cc21 (single isomer, unassigned)
pIC50: 6.00 to 6.30
--
compound: Clc1cc2c(s1)[C@@]1(CCN[C@H](c3c[nH]nn3)C1)OCC2
pIC50: 6.00 to 6.30
--
compound: Cn1cc([C@@H]2C[C@]3(CCN2)OCCc2cc(Cl)sc23)cn1 (single isomer, unassigned)
pIC50: > 7.00
--
compound: CCc1cc2c(s1)CCOC21CCNC(c2cn(C)nn2)C1 (stereo not drawn)
pIC50: 6.30 to 7.00
--
compound: Cn1cc([C@@H]2C[C@]3(CCN2)OCC(=O)c2cc(Cl)sc23)nn1
pIC50: 6.30 to 7.00
--
compound: Cn1ncc(C2CC3(CCN2)OCCc2cc(Cl)sc23)n1 (stereo not drawn)
pIC50: 6.00 to 6.30
--
compound: CCc1cc2c(s1)CCOC21CCNC(c2cnn(CCS(C)(=O)=O)c2)C1 (stereo not drawn)
pIC50: 6.30 to 7.00
--
compound: Fc1ccccc1-n1cc([C@@H]2C[C@]3(CCN2)OCCc2cc(Cl)sc23)nn1
pIC50: 6.00 to 6.30
--
compound: Cn1cc([C@@H]2C[C@]3(CCN2)OCC(O)c2cc(Cl)sc23)nn1 (stereo partly drawn) [Compound 36]
pIC50: 6.30 to 7.00
--
compound: Cn1cc([C@@H]2C[C@]3(CCN2)OCC(C)(O)c2cc(Cl)sc23)nn1 (single isomer, unassigned) [Compound 38]
pIC50: 6.30 to 7.00
--
compound: Cc1cc([C@@H]2C[C@]3(CCN2)OCCc2cc(Cl)sc23)on1 (single isomer, unassigned)
pIC50: 6.30 to 7.00
--
compound: CCc1cc2c(s1)C1(CCNC(c3cc(C)no3)C1)OCC2 (stereo not drawn)
pIC50: > 7.00
--
compound: CCc1cc2c(s1)CCOC21CCNC(C2(C)COC2)C1 (stereo not drawn)
pIC50: 6.00 to 6.30
--
compound: COCCn1cc([C@@H]2C[C@]3(CCN2)OCCc2cc(Cl)sc23)nn1
pIC50: 6.00 to 6.30
--
compound: CCc1cc2c(s1)CCOC21CCNC(C2CC2)C1 (stereo not drawn) [Compound 3]
pIC50: 6.30 to 7.00
--
compound: CN1Cc2ccc(-n3cc([C@@H]4C[C@]5(CCN4)OCCc4cc(Cl)sc45)nn3)cc2C1=O
pIC50: 6.30 to 7.00
--
compound: FC(F)(F)c1cc2c(s1)CCOC21CCNC(C2CC2)C1 (stereo not drawn)
pIC50: 6.30 to 7.00
--
compound: Oc1ccc(-n2cc([C@@H]3C[C@]4(CCN3)OCCc3cc(Cl)sc34)nn2)cc1
pIC50: 6.30 to 7.00
--
compound: CC1CO[C@]2(CCN[C@H](c3cn(C)nn3)C2)c2cc(Cl)sc21 (stereo partly drawn)
pIC50: 6.30 to 7.00
--
compound: Cn1cc([C@@H]2C[C@]3(CCN2)OCC(C)(O)c2cc(Cl)sc23)nn1 (single isomer, unassigned) [Compound 37]
pIC50: 6.00 to 6.30
--
compound: Cn1cc([C@@H]2C[C@]3(CCN2)OCCc2cc(C4CC4)sc23)nn1 (single isomer, unassigned)
pIC50: 6.30 to 7.00
--
compound: Cn1cc([C@@H]2CC3(CCN2)OCCc2c3sc(C(F)(F)F)c2CO)nn1 (stereo partly drawn)
pIC50: > 7.00
--
compound: CNC(=O)c1cc(-n2cc([C@@H]3C[C@]4(CCN3)OCCc3cc(Cl)sc34)nn2)ccc1OC
pIC50: 6.30 to 7.00
--
compound: NC(=O)c1cccc(-n2cc([C@@H]3C[C@]4(CCN3)OCCc3cc(Cl)sc34)nn2)c1
pIC50: > 7.00
--
compound: Cn1cc([C@@H]2CC3(CCN2)OCCc2cc(C4CC4)sc23)nn1 (stereo partly drawn)
pIC50: 6.00 to 6.30
--
compound: Cn1cc(C2CC3(CCN2)OCC(O)c2cc(Br)sc23)nn1 (single isomer, unassigned) [Compound 45]
pIC50: > 7.00
--
compound: Clc1cc2c(s1)[C@@]1(CCN[C@H](c3cn(-c4ccncc4)nn3)C1)OCC2
pIC50: 6.30 to 7.00
--
compound: Cn1cc(C2CC3(CCN2)OCC(O)c2cc(C4CC(F)(F)C4)sc23)nn1 (stereo not drawn)
pIC50: 6.00 to 6.30
--
compound: Clc1cc2c(s1)[C@@]1(CCN[C@H](c3cn(-c4ccccn4)nn3)C1)OCC2
pIC50: 6.30 to 7.00
--
compound: Cn1cc(C2CC3(CCN2)OCC(O)c2cc(Br)sc23)nn1 (single isomer, unassigned) [Compound 44]
pIC50: 6.00 to 6.30
--
compound: NC(=O)c1cc(-n2cc([C@@H]3C[C@]4(CCN3)OCCc3cc(Cl)sc34)nn2)ccc1F
pIC50: > 7.00
